Reported CC50 values for a set of compounds
# System: LOVO
# assay_details: cells
# Format: cell-based
# measurement_setup: read-out: LC50; LOVO, 48 hours exposure, SRB
Express your answer in µM, writing the number without its unit.

// known answers, use as guide
{"compound": "COc1c(C)cc2c(c1O)[C@@H]1C3[C@@H]4SC[C@]5(C(=O)COC[C@@H](c6c7c(c(C)c(OC(C)=O)c64)OCO7)N3[C@@H](O)[C@H](C2)N1C)c1[nH]c2ccccc2c1CCN5C (some centres unmarked) [Compound 39]", "readout_unit": "µM", "CC50": 0.12}
{"compound": "COc1c(C)cc2c(c1O)[C@@H]1C3[C@@H]4SC[C@]5(C(=O)COC[C@@H](c6c7c(c(C)c(OC(C)=O)c64)OCO7)N3[C@@H](O)[C@H](C2)N1C)c1[nH]c2ccccc2c1CCN5C (some centres unmarked) [Compound 40]", "readout_unit": "µM", "CC50": 0.0238}
{"compound": "COc1c(C)cc2c(c1O)[C@@H]1C3[C@@H]4SC[C@]5(NC(C)Cc6c5[nH]c5ccc(F)cc65)C(=O)COC[C@@H](c5c6c(c(C)c(OC(C)=O)c54)OCO6)N3[C@@H](O)[C@H](C2)N1C (some centres unmarked) [Compound 41]", "readout_unit": "µM", "CC50": 0.41}
{"compound": "COc1c(C)cc2c(c1O)[C@@H]1C3[C@@H]4SC[C@]5(NC(C)Cc6c5[nH]c5ccc(F)cc65)C(=O)COC[C@@H](c5c6c(c(C)c(OC(C)=O)c54)OCO6)N3[C@@H](O)[C@H](C2)N1C (some centres unmarked) [Compound 42]", "readout_unit": "µM", "CC50": 0.127}

Q. Need CC50, item COc1c(C)cc2c(c1O)[C@@H]1C3[C@@H]4SC[C@]5(NC(C)Cc6c5[nH]c5ccc(O)cc65)C(=O)COC[C@@H](c5c6c(c(C)c(OC(C)=O)c54)OCO6)N3[C@@H](O)[C@H](C2)N1C (some centres unmarked)
A. 12.7

---

# System: MB231
# assay_details: cells
# Format: cell-based
# measurement_setup: Homo sapiens; MB231, 48 hours exposure, SRB; read-out: TGI
measurement_label: IC (TGI) (nM)
Give your result in nM as a bare value.

The examples below pair each entry with its known result.
{"molecule": "COc1ccc2[nH]c3c(c2c1)CCN[C@]31CS[C@@H]2c3c(OC(C)=O)c(C)c4c(c3[C@H](COCC1=O)N1C2[C@H]2c3c(cc(C)c(OC)c3O)C[C@@H]([C@@H]1O)N2C)OCO4 (stereo partly shown) [Compound 27]", "IC (TGI) (nM)": 6.37}
{"molecule": "COc1c(C)cc2c(c1O)[C@@H]1C3[C@@H]4SC[C@]5(NCCc6c5[nH]c5ccccc65)C(=O)COC[C@@H](c5c6c(c(C)c(OC(C)=O)c54)OCO6)N3[C@@H](O)[C@H](C2)N1C (stereo partly shown) [Compound 26]", "IC (TGI) (nM)": 5.3}
{"molecule": "COc1c(C)cc2c(c1O)[C@@H]1C3[C@@H]4SC[C@]5(NCCc6c5[nH]c5ccc(C)cc65)C(=O)COC[C@@H](c5c6c(c(C)c(OC(C)=O)c54)OCO6)N3[C@@H](O)[C@H](C2)N1C (stereo partly shown) [Compound 30]", "IC (TGI) (nM)": 0.13}
{"molecule": "COc1c(C)cc2c(c1O)[C@@H]1C3[C@@H]4SC[C@]5(NCCc6c5[nH]c5ccc(OCc7ccccc7)cc65)C(=O)COC[C@@H](c5c6c(c(C)c(OC(C)=O)c54)OCO6)N3[C@@H](O)[C@H](C2)N1C (stereo partly shown) [Compound 29]", "IC (TGI) (nM)": 46.5}
{"molecule": "COc1c(C)cc2c(c1O)[C@@H]1C3[C@@H]4SC[C@]5(NCCc6c5[nH]c5cc(F)ccc65)C(=O)COC[C@@H](c5c6c(c(C)c(OC(C)=O)c54)OCO6)N3[C@@H](O)[C@H](C2)N1C (stereo partly shown) [Compound 32]", "IC (TGI) (nM)": 9.06}
{"molecule": "COc1c(C)cc2c(c1O)[C@@H]1C3[C@@H]4SC[C@]5(NCCc6c5[nH]c5ccc(O)cc65)C(=O)COC[C@@H](c5c6c(c(C)c(OC(C)=O)c54)OCO6)N3[C@@H](O)[C@H](C2)N1C (stereo partly shown) [Compound 31]", "IC (TGI) (nM)": 5.19}

Okay, now this molecule:
Q. Return reported IC (TGI); argument: COc1c(C)cc2c(c1O)[C@@H]1C3[C@@H]4SC[C@]5(NCCc6c5[nH]c5ccccc65)C(=O)COC[C@@H](c5c6c(c(C)c(OC(=O)C(F)(F)C(F)(F)C(F)(F)F)c54)OCO6)N3[C@@H](O)[C@H](C2)N1C (stereo partly shown) [Compound 62]
A. 5.5
